# Tested on: HCov OC43
# protocol-text: HCoV OC43 cytopathic effect (CPE) assay, CellTiter Glo
# Type: cell-based, human coronavirus (HCov) OC43
# measurement-setup: read-out: OC43 IC50 (uM) MEDIAN; median; listed as 961 Isomer 1
observable: IC50

IN: State its IC50: CC(C)(C)c1ccc(N(C(=O)[C@H]2CCCN2C#N)C(C(=O)N2CCNC(=O)C2)c2cccnc2)cc1 (single isomer, unassigned) [Compound 961 Isomer 1]
OUT: 2 to 10 µM

---

Assign EC50 to each entry below.
# subject-of-test: 229E Mpro (Human coronavirus 229E, UniProt P0C6X1)
# Sequence (P0C6X1 2966-3267): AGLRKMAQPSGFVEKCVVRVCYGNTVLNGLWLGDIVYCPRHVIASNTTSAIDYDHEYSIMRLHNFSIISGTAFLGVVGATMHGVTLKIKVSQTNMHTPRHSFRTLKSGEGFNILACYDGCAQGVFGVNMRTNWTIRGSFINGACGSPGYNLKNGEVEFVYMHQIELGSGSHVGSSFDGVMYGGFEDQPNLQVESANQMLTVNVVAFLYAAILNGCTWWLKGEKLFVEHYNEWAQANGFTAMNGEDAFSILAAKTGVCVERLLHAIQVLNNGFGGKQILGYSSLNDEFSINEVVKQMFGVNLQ
# protocol-text: 229E Mpro enzymatic assay (standard methods, SARS-CoV2 Mpro assay given as exemplary)
# Type: biochemical, human coronavirus (HCov) 229E
# measurement-setup: read-out: 229E Mpro EC50

IN: State its EC50: Cn1cnnc1C(C(=O)NC1CCCCC1)N(C(=O)[C@H]1C[C@@H](O)CN1C#N)c1ccc(C(C)(C)C)cc1 (single isomer, unassigned) [659 Isomer 2]
OUT: < 2000 nM

IN: State its EC50: N#CN1C[C@H](F)C[C@@H]1C(=O)N(c1ccc(S(F)(F)(F)(F)F)cc1)C(C(=O)NC1CCC(F)(F)CC1)c1cncc(F)c1 (single isomer, unassigned) [Compound 1098 Isomer 2]
OUT: < 2000 nM

IN: State its EC50: CC1(C)CN(C#N)[C@@H](C(=O)N(c2ccc(S(F)(F)(F)(F)F)cc2)C(C(=O)NC2CCC(F)(F)CC2)c2cncc(F)c2)CO1 (single isomer, unassigned) [1086b Isomer 2]
OUT: < 2000 nM

---

Assign pIC50 to each entry below.
# subject-of-test: UniProt:P0DTD1
# protocol-text: COVID-19 (nCoV-2019, SARS-CoV2) Mpro enzymatic assay
# Assay type: biochemical
# measurement-setup: 25 nM Mpro, 25 μM substrate; read-out: COVID-19 Mpro IC50
pIC50: −log10 of the molar value.

IN: State its pIC50: CO[C@@H]1C[C@H](C(=O)N(c2ccc(S(F)(F)(F)(F)F)cc2)C(C(=O)NC2CCOC(C)(C)C2)c2cccnc2)N(C#N)C1 (single isomer, unassigned) [1165 Isomer 2]
OUT: 4.52 to 5.00

IN: State its pIC50: CC1(C)CN(C#N)[C@@H](C(=O)N(c2ccc(C(C)(C)C)cc2)C(C(=O)NC2CCOCC2)c2cccnc2)CO1 (single isomer, unassigned) [1141 Isomer 3]
OUT: < 4.52

IN: State its pIC50: CO[C@@H]1C[C@H](C(=O)N(c2ccc(S(F)(F)(F)(F)F)cc2)C(C)(C(=O)NC2CCC(F)(F)CC2)c2cnccn2)N(C#N)C1 (single isomer, unassigned) [1299 Isomer 1]
OUT: 5.00 to 5.70

IN: State its pIC50: CC(C)(C)c1ccc(N(C(=O)c2cnc[nH]2)C(C(=O)NC2CCCCC2)c2ncc(Cl)nc2C#N)cc1 (centres unmarked)
OUT: < 4.52

IN: State its pIC50: N#CN1C[C@@H]2C[C@@H]2[C@@H]1C(=O)N(c1ccc(S(F)(F)(F)(F)F)cc1)C(C(=O)NC1CCC(F)(F)CC1)c1cncc(F)c1 (single isomer, unassigned) [1096 Isomer 2]
OUT: > 5.70

---

# subject-of-test: 229E Mpro (Human coronavirus 229E)
# protocol-text: 229E Mpro enzymatic assay (standard methods, SARS-CoV2 Mpro assay given as exemplary)
# Type: biochemical, human coronavirus (HCov) 229E
# measurement-setup: 229E Mpro EC50
pEC50: −log10 of the molar value.
Assign pEC50 to each entry below.

IN: State its pEC50: CC(C)(C)c1ccc(N(C(=O)c2nccnc2C(N)=O)C(C(=O)NC2CCCCC2)c2cccnc2)cc1 (centres unmarked) [Compound 124a]
OUT: < 4.52

IN: State its pEC50: O=C(NC1CCC(F)(F)CC1)C(c1cncc(F)c1)N(C(=O)c1cnc[nH]1)c1ccc(S(F)(F)(F)(F)F)cc1 (single isomer, unassigned) [1337 Isomer 1]
OUT: 5.00 to 5.70

IN: State its pEC50: CC(C(=O)NC1CCC(F)(F)CC1)(c1cccnc1)N(C(=O)[C@H]1C[C@@](C)(O)CN1C#N)c1ccc(S(F)(F)(F)(F)F)cc1 (single isomer, unassigned) [Compound 1077 Isomer 1]
OUT: > 5.70

IN: State its pEC50: CC(C)(C)c1ccc(N(C(=O)[C@H]2CCCN2C#N)C(C(=O)NC2CCCCC2)c2cccnc2)cc1 (single isomer, unassigned) [Compound 130b]
OUT: 5.00 to 5.70

IN: State its pEC50: Cn1cnnc1C(C(=O)NC1CCCCC1)N(C(=O)[C@H]1C[C@@H](O)CN1C#N)c1ccc(C(C)(C)C)cc1 (single isomer, unassigned) [659 Isomer 1]
OUT: > 5.70

IN: State its pEC50: O=C1CCCCC1C(=O)N(c1ccc(S(F)(F)(F)(F)F)cc1)C(C(=O)NC1CCC(F)(F)CC1)c1cncc(F)c1 (centres unmarked)
OUT: 5.00 to 5.70

IN: State its pEC50: CO[C@@H]1C[C@H](C(=O)N(c2ccc(S(F)(F)(F)(F)F)cc2)C(C(=O)NC(C)C2CCCCN2)c2cccnc2)N(C#N)C1 (some centres unmarked)
OUT: > 5.70

IN: State its pEC50: CC(C)(C)c1ccc(N(C(=O)[C@H]2C[C@@H](O)CN2C#N)C(C(=O)NC2CCCCC2)c2cncc(Cl)c2)cc1 (single isomer, unassigned) [675 Isomer 1]
OUT: > 5.70

IN: State its pEC50: CC(C)(C)c1ccc(N(C(=O)[C@H]2NCC2(C)C)[C@H](C(=O)NC2CCCCC2)c2cccnc2)cc1 [Compound 136b]
OUT: < 4.52

IN: State its pEC50: CO[C@@H]1C[C@H](C(=O)N(c2ccc(S(F)(F)(F)(F)F)cc2)C(C(=O)NC(C)C2CCCCN2C(=O)OC(C)(C)C)c2cccnc2)N(C#N)C1 (single isomer, unassigned) [1303 Isomer 1]
OUT: > 5.70

IN: State its pEC50: CC(C)(C)c1ccc(N(C(=O)[C@H]2Cc3ccccc3CN2C#N)C(C(=O)NC2CCCCC2)c2cccnc2)cc1 (single isomer, unassigned) [Compound 374 Isomer 1]
OUT: < 4.52
